system: panel of 55 breast cancer cell lines; test: Cell growth inhibition assay (Cell Titer Glo, 72 h, 9 doses; GI50, TGI, LC50); format: cell-based, human; conditions: Homo sapiens, HCC38, HCC38 cell line; censored GI50 values; read-out: GI50 (converted)
Where a name gives a salt, the structure may show the parent alone.
Measure: GI50

Answered examples (4):
>>> result("CCN(CC)CCNC(=O)c1c(C)[nH]c(/C=C2\\C(=O)Nc3ccc(F)cc32)c1C [Sunitinib Malate]")
"5.75 µM"
>>> result("Cc1[nH]c2ccccc2c1CCNCc1ccc(/C=C/C(=O)NO)cc1 [LBH589]")
"0.0355 µM"
>>> result("CC/C(=C(\\c1ccccc1)c1ccc(OCCN(C)C)cc1)c1ccccc1 [Tamoxifen]")
"52.5 µM"
>>> result("CCCCCN(C)CCC(O)(P(=O)(O)O)P(=O)(O)O [Ibandronate sodium salt]")
"57.5 µM"

From here, focus on the item given below.
Lab request: please report GI50 under test system panel of 55 breast cancer cell lines for O=C1c2ccccc2-[n+]2ccc3c([nH]c4ccccc43)c21 [Fascaplysin]
0.275 µM
